STUDY_TARGET: Atypical chemokine receptor 3 (Homo sapiens)
ASSAY_METHOD_TEXT: Displacement of [125I]SDF-1alpha from ACKR3 (unknown origin) expressed in CHO cells after 1 hr by scintillation counting method
pIC50: −log10 of the molar value.
Catalogue of pIC50 values
ATTRIBUTE_MEASURED: pIC50

query_smiles=CN1C(=O)[C@H](CCCNC(=N)N)NC(=O)[C@@H](Cc2ccc(O)cc2)NC(=O)[C@H](Cc2c[nH]c3ccccc23)NC(=O)[C@H](Cc2ccc3ccccc3c2)NC(=O)[C@@H]1CCCNC(N)=O recorded_result=6.07
query_smiles=CN1C(=O)[C@H](CCCNC(=N)N)NC(=O)[C@@H](Cc2ccc(O)cc2)NC(=O)[C@H](Cc2c[nH]c3ccccc23)N(C)C(=O)[C@H](Cc2ccc3ccccc3c2)NC(=O)[C@@H]1CCCNC(N)=O recorded_result=6.28
query_smiles=CN1C(=O)[C@H](CCCNC(=N)N)NC(=O)[C@@H](Cc2ccc(F)cc2)NC(=O)[C@@H]2CCCN2C(=O)[C@H](Cc2ccc3ccccc3c2)NC(=O)[C@@H]1CCCNC(N)=O recorded_result=5.92
query_smiles=CN1C(=O)[C@H](CCCNC(=N)N)NC(=O)[C@@H](Cc2ccc(O)cc2)NC(=O)[C@@H]2CCCN2C(=O)[C@H](Cc2ccc3ccccc3c2)NC(=O)[C@@H]1CCNC(=N)N recorded_result=5.82

###

Catalogue of IC50 values
STUDY_TARGET: UniProtKB P61073
Sequence (P61073 whole entry): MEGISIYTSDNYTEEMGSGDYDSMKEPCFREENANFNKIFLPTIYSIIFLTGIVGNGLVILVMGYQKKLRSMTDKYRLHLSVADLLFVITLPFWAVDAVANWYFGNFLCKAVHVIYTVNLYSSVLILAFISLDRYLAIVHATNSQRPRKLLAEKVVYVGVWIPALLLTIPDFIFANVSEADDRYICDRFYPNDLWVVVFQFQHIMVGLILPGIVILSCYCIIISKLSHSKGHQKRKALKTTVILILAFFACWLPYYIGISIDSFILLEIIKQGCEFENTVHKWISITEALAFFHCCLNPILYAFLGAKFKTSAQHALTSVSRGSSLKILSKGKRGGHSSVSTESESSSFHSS
ASSAY_METHOD_TEXT: Displacement of [125I]SDF-1alpha from CXCR4 (unknown origin) expressed in HEK293 cells after 1 hr by scintillation counting method
ATTRIBUTE_MEASURED: IC50

query_smiles=CN1C(=O)[C@@H]2CCCN2C(=O)[C@@H](Cc2ccc(O)cc2)NC(=O)[C@@H]2CCCN2C(=O)[C@H](Cc2ccc3ccccc3c2)NC(=O)[C@@H]1CCCNC(=N)N attribute_measured=IC50 recorded_result="> 30 µM"
query_smiles=CN1C(=O)[C@H](Cc2cnc[nH]2)NC(=O)[C@@H](Cc2ccc(O)cc2)NC(=O)[C@@H]2CCCN2C(=O)[C@H](Cc2ccc3ccccc3c2)NC(=O)[C@@H]1CCCNC(=N)N attribute_measured=IC50 recorded_result="> 30 µM"
query_smiles=CN1C(=O)[C@H](CCCNC(=N)N)NC(=O)[C@@H](Cc2ccc(O)cc2)NC(=O)[C@H](Cc2c[nH]c3ccccc23)N(C)C(=O)[C@H](Cc2ccc3ccccc3c2)NC(=O)[C@@H]1CCCNC(N)=O attribute_measured=IC50 recorded_result="10 µM"

###

STUDY_TARGET: Atypical chemokine receptor 3 (Homo sapiens, UniProt P25106)
Sequence (P25106 whole entry): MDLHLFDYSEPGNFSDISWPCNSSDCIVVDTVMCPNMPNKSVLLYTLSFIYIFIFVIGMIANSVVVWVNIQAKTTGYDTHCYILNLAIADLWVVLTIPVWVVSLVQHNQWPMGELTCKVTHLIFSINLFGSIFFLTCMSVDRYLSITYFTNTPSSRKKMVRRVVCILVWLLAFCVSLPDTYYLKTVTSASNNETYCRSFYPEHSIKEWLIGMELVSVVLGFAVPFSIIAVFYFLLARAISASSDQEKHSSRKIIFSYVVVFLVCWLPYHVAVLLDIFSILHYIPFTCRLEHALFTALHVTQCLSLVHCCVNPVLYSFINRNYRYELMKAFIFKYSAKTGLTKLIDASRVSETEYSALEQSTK
ASSAY_METHOD_TEXT: Displacement of [125I]SDF-1alpha from ACKR3 (unknown origin) expressed in CHO cells after 1 hr by scintillation counting method
Catalogue of IC50 values
ATTRIBUTE_MEASURED: IC50 (nM)

query_smiles=CN1C(=O)[C@H](CCCNC(=N)N)NC(=O)[C@@H](Cc2csc3ccccc23)NC(=O)[C@@H]2CCCN2C(=O)[C@H](Cc2ccc3ccccc3c2)NC(=O)[C@@H]1CCCNC(N)=O unit_of_measurement=nM recorded_result=540
query_smiles=CN1C(=O)[C@H](CCCNC(=N)N)NC(=O)[C@@H](Cc2ccc(O)cc2)NC(=O)[C@H](Cc2ccc(-c3ccccc3)cc2)N(C)C(=O)[C@H](Cc2ccc3ccccc3c2)NC(=O)[C@@H]1CCCNC(N)=O unit_of_measurement=nM recorded_result=4000
query_smiles=CN1C(=O)[C@H](CCCNC(=N)N)NC(=O)[C@@H](Cc2ccc(O)cc2)NC(=O)[C@H](Cc2cccc3ccccc23)N(C)C(=O)[C@H](Cc2ccc3ccccc3c2)NC(=O)[C@@H]1CCCNC(N)=O unit_of_measurement=nM recorded_result=170
query_smiles=CN1C(=O)[C@H](CCCNC(N)=O)NC(=O)[C@@H](Cc2ccc(O)cc2)NC(=O)[C@@H]2CCCN2C(=O)[C@H](Cc2ccc3ccccc3c2)NC(=O)[C@@H]1CCCNC(=N)N unit_of_measurement=nM recorded_result=3600
query_smiles=CN1C(=O)[C@H](CCCNC(=N)N)NC(=O)[C@@H](Cc2ccc(O)cc2)NC(=O)[C@@H]2CCCN2C(=O)[C@H](Cc2ccc3ccccc3c2)NC(=O)[C@@H]1CCCCNC(=N)N unit_of_measurement=nM recorded_result=560
query_smiles=CN1C(=O)[C@H](CCCNC(=N)N)NC(=O)[C@@H](Cc2ccc(O)cc2)NC(=O)[C@@H]2C[C@@H]3CCCC[C@@H]3N2C(=O)[C@H](Cc2ccc3ccccc3c2)NC(=O)[C@@H]1CCCNC(N)=O unit_of_measurement=nM recorded_result=350

###

Catalogue of IC50 values
STUDY_TARGET: UniProtKB P61073
ASSAY_METHOD_TEXT: Displacement of [125I]SDF-1alpha from CXCR4 (unknown origin) expressed in HEK293 cells after 1 hr by scintillation counting method
ATTRIBUTE_MEASURED: IC50

query_smiles=CN1C(=O)[C@H](CCCNC(=N)N)NC(=O)[C@@H](CCc2ccccc2)NC(=O)[C@@H]2CCCN2C(=O)[C@H](Cc2ccc3ccccc3c2)NC(=O)[C@@H]1CCCNC(N)=O study_target="UniProtKB P61073" recorded_result="> 30 µM"
query_smiles=CN1C(=O)[C@H](CCNC(=N)N)NC(=O)[C@@H](Cc2ccc(O)cc2)NC(=O)[C@@H]2CCCN2C(=O)[C@H](Cc2ccc3ccccc3c2)NC(=O)[C@@H]1CCCNC(=N)N study_target="UniProtKB P61073" recorded_result="> 30 µM"
query_smiles=CN1C(=O)[C@H](CCCNC(=N)N)NC(=O)[C@@H](Cc2ccc(F)cc2)NC(=O)[C@@H]2CCCN2C(=O)[C@H](Cc2ccc3ccccc3c2)NC(=O)[C@@H]1CCCNC(N)=O study_target="UniProtKB P61073" recorded_result="> 30 µM"
query_smiles=CN1C(=O)[C@H](CCCNC(=N)N)NC(=O)[C@@H](Cc2cccc(F)c2)NC(=O)[C@@H]2CCCN2C(=O)[C@H](Cc2ccc3ccccc3c2)NC(=O)[C@@H]1CCCNC(N)=O study_target="UniProtKB P61073" recorded_result="> 30 µM"
query_smiles=CN1C(=O)[C@H](CCCNC(N)=O)NC(=O)[C@@H](Cc2ccc(O)cc2)NC(=O)[C@@H]2CCCN2C(=O)[C@H](Cc2ccc3ccccc3c2)NC(=O)[C@@H]1CCCNC(=N)N study_target="UniProtKB P61073" recorded_result="> 30 µM"

###

STUDY_TARGET: Atypical chemokine receptor 3 (Homo sapiens, UniProt P25106, D275N)
Sequence (P25106 whole entry D275N): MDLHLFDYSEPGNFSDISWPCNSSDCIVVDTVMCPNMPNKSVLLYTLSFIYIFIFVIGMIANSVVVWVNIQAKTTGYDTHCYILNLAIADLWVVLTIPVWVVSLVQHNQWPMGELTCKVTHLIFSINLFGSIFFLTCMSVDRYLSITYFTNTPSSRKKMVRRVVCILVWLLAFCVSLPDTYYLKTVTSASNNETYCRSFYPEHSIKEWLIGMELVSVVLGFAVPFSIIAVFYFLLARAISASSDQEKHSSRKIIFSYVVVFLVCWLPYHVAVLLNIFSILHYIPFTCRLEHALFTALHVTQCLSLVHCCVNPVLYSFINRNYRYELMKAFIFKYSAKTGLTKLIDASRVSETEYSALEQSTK
ASSAY_METHOD_TEXT: Activation of YFP-tagged ACKR3 D275N mutant (unknown origin) expressed in HEK293E cells assessed as induction of Rluc-tagged beta-arrestin-2 recruitment after 30 mins by BRET assay
Type: cell-based
PARTICULARS: read-out: EC50
pEC50: −log10 of the molar value.
Catalogue of pEC50 values
ATTRIBUTE_MEASURED: pEC50

query_smiles=CN1C(=O)[C@H](CCCNC(=N)N)NC(=O)[C@@H](Cc2ccc(O)cc2)NC(=O)[C@@H]2CCCN2C(=O)[C@H](Cc2ccc3ccccc3c2)NC(=O)[C@@H]1CCCNC(=N)N attribute_measured=pEC50 recorded_result=6.44
query_smiles=CN1C(=O)[C@H](CCCNC(=N)N)NC(=O)[C@@H](Cc2ccc(O)cc2)NC(=O)[C@H](Cc2cccc3ccccc23)N(C)C(=O)[C@H](Cc2ccc3ccccc3c2)NC(=O)[C@@H]1CCCNC(N)=O attribute_measured=pEC50 recorded_result=5.26

###

STUDY_TARGET: Atypical chemokine receptor 3 (Homo sapiens, UniProt P25106, D179N)
Sequence (P25106 whole entry D179N): as the sequence (P25106 whole entry D275N) above, with D179N, N275D counted along it
ASSAY_METHOD_TEXT: Activation of YFP-tagged ACKR3 D179N mutant (unknown origin) expressed in HEK293E cells assessed as induction of Rluc-tagged beta-arrestin-2 recruitment after 30 mins by BRET assay
Format: cell-based
PARTICULARS: read-out: EC50
Catalogue of EC50 values
ATTRIBUTE_MEASURED: EC50 (nM)

query_smiles=CN1C(=O)[C@H](CCCNC(=N)N)NC(=O)[C@@H](Cc2ccc(O)cc2)NC(=O)[C@H](Cc2cccc3ccccc23)N(C)C(=O)[C@H](Cc2ccc3ccccc3c2)NC(=O)[C@@H]1CCCNC(N)=O recorded_result=110
query_smiles=CN1C(=O)[C@H](CCCNC(=N)N)NC(=O)[C@@H](Cc2ccc(O)cc2)NC(=O)[C@@H]2CCCN2C(=O)[C@H](Cc2ccc3ccccc3c2)NC(=O)[C@@H]1CCCNC(=N)N recorded_result=2200

###

STUDY_TARGET: Atypical chemokine receptor 3 (Homo sapiens)
ASSAY_METHOD_TEXT: Displacement of [125I]SDF-1alpha from ACKR3 (unknown origin) expressed in CHO cells after 1 hr by scintillation counting method
Catalogue of IC50 values
ATTRIBUTE_MEASURED: IC50 (µM)

query_smiles=CN1C(=O)[C@H](CCCCNC(=N)N)NC(=O)[C@@H](Cc2ccc(O)cc2)NC(=O)[C@@H]2CCCN2C(=O)[C@H](Cc2ccc3ccccc3c2)NC(=O)[C@@H]1CCCNC(=N)N attribute_measured=IC50 unit_of_measurement=µM recorded_result=0.84
query_smiles=CN1C(=O)[C@H](CCCNC(=N)N)NC(=O)[C@@H](Cc2ccc(O)cc2)NC(=O)[C@H](Cc2ccccc2)N(C)C(=O)[C@H](Cc2ccc3ccccc3c2)NC(=O)[C@@H]1CCCNC(N)=O attribute_measured=IC50 unit_of_measurement=µM recorded_result=0.6
query_smiles=CN1C(=O)[C@H](CCCNC(=N)N)NC(=O)[C@@H](Cc2ccc(O)cc2)NC(=O)[C@@H]2CCCN2C(=O)[C@H](Cc2ccc3ccccc3c2)NC(=O)[C@@H]1CC(N)=O attribute_measured=IC50 unit_of_measurement=µM recorded_result=4.1
query_smiles=CN1C(=O)[C@H](CCCNC(=N)N)NC(=O)[C@@H](Cc2ccc(O)cc2)NC(=O)[C@@H]2CCCN2C(=O)[C@H](Cc2ccc3ccccc3c2)NC(=O)[C@@H]1CCCNC(N)=O attribute_measured=IC50 unit_of_measurement=µM recorded_result=13
query_smiles=CN1C(=O)[C@H](CCCNC(=N)N)NC(=O)[C@@H](Cc2ccc3ccccc3c2)NC(=O)[C@@H]2CCCN2C(=O)[C@H](Cc2ccc3ccccc3c2)NC(=O)[C@@H]1CCCNC(N)=O attribute_measured=IC50 unit_of_measurement=µM recorded_result=0.69
query_smiles=CC(C)C[C@H]1C(=O)N[C@H](Cc2ccc(O)cc2)C(=O)N[C@@H](CCCNC(=N)N)C(=O)N(C)[C@@H](CCCNC(N)=O)C(=O)N[C@@H](Cc2ccc3ccccc3c2)C(=O)N1C attribute_measured=IC50 unit_of_measurement=µM recorded_result=1.9
query_smiles=CN1C(=O)[C@H](CCCNC(=N)N)NC(=O)[C@@H](Cc2ccc(O)cc2)NC(=O)[C@@H]2Cc3ccccc3CN2C(=O)[C@H](Cc2ccc3ccccc3c2)NC(=O)[C@@H]1CCCNC(N)=O attribute_measured=IC50 unit_of_measurement=µM recorded_result=4.2
query_smiles=CN1C(=O)[C@H](CCCNC(=N)N)NC(=O)[C@@H](Cc2ccc(Br)cc2)NC(=O)[C@@H]2CCCN2C(=O)[C@H](Cc2ccc3ccccc3c2)NC(=O)[C@@H]1CCCNC(N)=O attribute_measured=IC50 unit_of_measurement=µM recorded_result=0.72
query_smiles=CN1C(=O)[C@H](CCCNC(=N)N)NC(=O)[C@@H](Cc2ccc(O)cc2)NC(=O)[C@@H]2CCCN2C(=O)[C@H](Cc2ccc3ccccc3c2)NC(=O)[C@@H]1CCC(N)=O attribute_measured=IC50 unit_of_measurement=µM recorded_result=5.8
query_smiles=CN1C(=O)[C@H](CCCNC(=N)N)NC(=O)[C@@H](Cc2ccc(O)cc2)NC(=O)[C@@H]2Cc3[nH]c4ccccc4c3CN2C(=O)[C@H](Cc2ccc3ccccc3c2)NC(=O)[C@@H]1CCCNC(N)=O attribute_measured=IC50 unit_of_measurement=µM recorded_result=2.1
